- Tested on: PPARg:RXRa 90nM:30nM, anti-RXR (NR concentration 90 nM, RXRa partner concentration 30 nM)
- PROTOCOL_DESCRIPTION: PBM binding z-score (relative to random genomic background probes); higher = stronger binding; sequences stand for … in GC…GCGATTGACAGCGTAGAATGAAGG
I'd be grateful if you could share measured PBM binding z-score for these entries.
Answers are plain numbers.

1. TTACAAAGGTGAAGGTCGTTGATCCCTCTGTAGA    4.11
2. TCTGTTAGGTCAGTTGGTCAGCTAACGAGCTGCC    2.76
3. TCGAGTAGGTTAGTCCGGGCATTCAGCCAACATA    0.409
4. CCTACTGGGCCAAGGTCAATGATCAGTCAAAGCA    3.39
5. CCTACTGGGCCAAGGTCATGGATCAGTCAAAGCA    3.69
6. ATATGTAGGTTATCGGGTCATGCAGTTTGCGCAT    6.01
7. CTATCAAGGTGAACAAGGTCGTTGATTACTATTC    0.808
8. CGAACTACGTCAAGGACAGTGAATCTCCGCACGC    -0.799

Parameters: items (list). Returns: PBM binding z-score for each item.
1. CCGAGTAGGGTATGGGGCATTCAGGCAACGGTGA
2. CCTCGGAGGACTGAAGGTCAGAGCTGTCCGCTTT

Solution:
3.18
-0.111

Parameters: items (list). Returns: PBM binding z-score for each item.
1. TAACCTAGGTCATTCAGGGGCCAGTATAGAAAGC
2. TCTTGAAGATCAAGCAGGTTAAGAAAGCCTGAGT

Solution:
1: 3.03; 2: 1.74

* * *

- Tested on: PXR:RXRa (NR concentration 270 nM, RXRa partner concentration 90 nM)
- PROTOCOL_DESCRIPTION: PBM binding z-score (relative to random genomic background probes); higher = stronger binding; sequences stand for … in GC…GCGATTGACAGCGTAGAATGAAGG
MEASUREMENT_KIND: PBM binding z-score
Answers are plain numbers.

Worked cases, answers included:
1) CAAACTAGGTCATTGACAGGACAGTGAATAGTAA    1.73
2) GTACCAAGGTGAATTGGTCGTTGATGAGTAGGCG    -0.436
3) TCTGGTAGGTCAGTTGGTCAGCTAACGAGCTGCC    0.675

Parameters: items (list). Returns: PBM binding z-score for each item.
1. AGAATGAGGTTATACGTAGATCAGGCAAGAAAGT
2. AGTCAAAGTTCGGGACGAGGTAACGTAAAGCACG
3. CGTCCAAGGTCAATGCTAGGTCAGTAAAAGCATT

Solution:
[1.01, 0.716, 4.82]

* * *

- Tested on: RARa:RXR (NR concentration 270 nM, RXRa partner concentration 90 nM)
- PROTOCOL_DESCRIPTION: PBM binding z-score (relative to random genomic background probes); higher = stronger binding; sequences stand for … in GC…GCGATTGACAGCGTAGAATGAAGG
I'd be grateful if you could share measured PBM binding z-score for these entries.
Numbers only.

Worked cases, answers included:
1) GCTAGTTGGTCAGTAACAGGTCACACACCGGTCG    2.32
2) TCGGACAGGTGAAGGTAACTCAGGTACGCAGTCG    0.44

Parameters: items (list). Returns: PBM binding z-score for each item.
1. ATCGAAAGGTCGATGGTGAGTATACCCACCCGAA
2. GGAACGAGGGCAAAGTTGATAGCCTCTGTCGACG
3. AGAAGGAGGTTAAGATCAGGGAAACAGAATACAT
4. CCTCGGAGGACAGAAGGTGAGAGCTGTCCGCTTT
5. CCTCGGAGGACAACAGGAGGTCTGAGCTGCCAGA

Solution:
2.18
1.37
1.51
0.317
-0.635

* * *

I'd be grateful if you could share measured PBM binding z-score for these entries.
- Tested on: RARa:RXR (NR concentration 270 nM, RXRa partner concentration 90 nM)
- PROTOCOL_DESCRIPTION: PBM binding z-score (relative to random genomic background probes); higher = stronger binding; sequences stand for … in GC…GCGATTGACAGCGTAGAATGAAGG
Give bare numbers.

Parameters: items (list). Returns: PBM binding z-score for each item.
1. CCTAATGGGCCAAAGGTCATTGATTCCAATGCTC
2. CCTCGGATGACAGAAGGTCAGAGCTGTCCGCTTT
3. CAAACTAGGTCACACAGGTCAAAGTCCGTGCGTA
4. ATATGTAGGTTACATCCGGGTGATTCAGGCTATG
5. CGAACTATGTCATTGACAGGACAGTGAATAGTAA
6. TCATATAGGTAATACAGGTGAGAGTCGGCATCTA

Solution:
1: 6.51; 2: 1.85; 3: 4.85; 4: 0.999; 5: 0.317; 6: 0.533

Parameters: items (list). Returns: PBM binding z-score for each item.
1. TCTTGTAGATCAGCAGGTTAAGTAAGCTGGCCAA
2. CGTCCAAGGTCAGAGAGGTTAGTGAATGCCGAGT
3. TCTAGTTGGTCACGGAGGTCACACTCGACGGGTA
4. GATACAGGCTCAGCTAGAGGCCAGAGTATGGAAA
5. GCTAGCGGGCCATTTGGGTCACTCAATGACGGGC
6. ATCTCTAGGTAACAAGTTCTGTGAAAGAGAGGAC
7. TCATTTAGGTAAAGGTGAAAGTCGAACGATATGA
8. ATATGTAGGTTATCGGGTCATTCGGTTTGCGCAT

Solution:
1. 0.553
2. 3.47
3. 4.2
4. -0.733
5. 0.906
6. 0.67
7. 1.92
8. 3.42

Parameters: items (list). Returns: PBM binding z-score for each item.
1. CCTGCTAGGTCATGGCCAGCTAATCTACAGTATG
2. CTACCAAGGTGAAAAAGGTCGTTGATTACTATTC
3. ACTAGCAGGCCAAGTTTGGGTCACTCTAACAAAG

Solution:
[2.49, 2.56, 1.57]

* * *

- System: LXRa:RXRa (NR concentration 270 nM, RXRa partner concentration 90 nM)
- PROTOCOL_DESCRIPTION: PBM binding z-score (relative to random genomic background probes); higher = stronger binding; sequences stand for … in GC…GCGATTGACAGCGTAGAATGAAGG
I'd be grateful if you could share measured PBM binding z-score for these entries.
Numbers only.

1) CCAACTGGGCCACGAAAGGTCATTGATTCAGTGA    5.09
2) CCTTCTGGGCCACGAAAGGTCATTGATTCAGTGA    5.51
3) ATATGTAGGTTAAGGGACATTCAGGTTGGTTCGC    1.06
4) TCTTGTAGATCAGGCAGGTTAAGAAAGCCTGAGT    0.00615
5) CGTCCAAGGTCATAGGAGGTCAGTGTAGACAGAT    7.26

Now look at this one.
Recorded result, "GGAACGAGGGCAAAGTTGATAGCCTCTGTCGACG" , PBM binding z-score: 0.817

* * *

- Tested on: LXRb:RXRa (NR concentration 270 nM, RXRa partner concentration 90 nM)
- PROTOCOL_DESCRIPTION: PBM binding z-score (relative to random genomic background probes); higher = stronger binding; sequences stand for … in GC…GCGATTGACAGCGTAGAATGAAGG
I'd be grateful if you could share measured PBM binding z-score for these entries.
Give bare numbers.

1. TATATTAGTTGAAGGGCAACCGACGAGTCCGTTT    0.474
2. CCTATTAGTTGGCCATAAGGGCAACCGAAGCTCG    -0.00443
3. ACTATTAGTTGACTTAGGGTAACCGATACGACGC    0.679
4. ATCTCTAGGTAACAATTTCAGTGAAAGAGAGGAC    0.374
5. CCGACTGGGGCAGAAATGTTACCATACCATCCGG    -0.528

Parameters: items (list). Returns: PBM binding z-score for each item.
1. CAAACTAGGGCAAGGTCAAAGTCGGTTTGTGCCA
2. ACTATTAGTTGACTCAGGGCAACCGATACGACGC
3. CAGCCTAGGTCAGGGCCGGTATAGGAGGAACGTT
4. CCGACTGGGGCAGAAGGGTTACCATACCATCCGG
5. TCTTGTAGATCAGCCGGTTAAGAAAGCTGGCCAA

Solution:
[3.77, 0.195, 0.466, -0.143, 0.0561]

Parameters: items (list). Returns: PBM binding z-score for each item.
1. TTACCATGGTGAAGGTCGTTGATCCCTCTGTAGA
2. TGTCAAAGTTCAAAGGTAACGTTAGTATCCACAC

Solution:
1. 1.35
2. 4.65
